assay: Comparison of bioavailability of Compound A and Trimethoprim (TMP) administered by i/v injection, cats; assay type: in vivo; conditions: female, cat, serum, intravenous, 2 mg/kg, cat 4; 1 hours post inj.; i/v injection at 2 mg/kg; read-out: Serum conc. of Compound A

{"Smiles code": "Cc1cc(Cc2cnc(N)nc2N)c2cccnc2c1N(C)C", "Unit string": "ng/mL", "concentration at 1 h": 310}

---

assay: Comparison of bioavailability of Compound A and Trimethoprim (TMP) administered by i/v injection, dogs; format: in vivo; details: male, beagle, serum, intravenous; dog M; 1 hours post inj.; i/v injection at 2 mg/kg; read-out: Serum conc. of Compound A
Value kind: concentration at 1 h (ng/mL)

{"Smiles code": "Cc1cc(Cc2cnc(N)nc2N)c2cccnc2c1N(C)C", "Unit string": "ng/mL", "Readout value": 240}

---

experiment: Comparison of bioavailability of Compound A and Trimethoprim (TMP) administered by i/v injection, cats; assay type: in vivo; settings: female, cat, serum, intravenous, 2 mg/kg, cat 1; 0 hours post inj.; i/v injection at 2 mg/kg; read-out: Serum conc. of TMP

{"Smiles code": "COc1cc(Cc2cnc(N)nc2N)cc(OC)c1OC", "Unit string": "ng/mL", "concentration at 0 h": 0}

---

test: Comparison of bioavailability of Compound A and Trimethoprim (TMP) administered by i/v injection, cats; format: in vivo; conditions: female, cat, serum, intravenous, 2 mg/kg, cat 1; 7 hours post inj.; i/v injection at 2 mg/kg; read-out: Serum conc. of TMP

{"Smiles code": "COc1cc(Cc2cnc(N)nc2N)cc(OC)c1OC", "concentration at 7 h, ng/mL": 0}

---

experiment: Comparison of bioavailability of Compound A and Trimethoprim (TMP) administered by i/v injection, dogs; format: in vivo; settings: male, beagle, serum, intravenous; dog M; 0 hours post inj.; i/v injection at 2 mg/kg; read-out: Serum conc. of Compound A

{"Compound": "Cc1cc(Cc2cnc(N)nc2N)c2cccnc2c1N(C)C [Compound A]", "concentration at 0 h, ng/mL": 0}

---

experiment: Comparison of bioavailability of Compound A and Trimethoprim (TMP) administered by i/v injection, dogs; assay type: in vivo; conditions: female, beagle, serum, intravenous; dog F; 24 hours post inj.; i/v injection at 2 mg/kg; read-out: Serum conc. of TMP
Value kind: concentration at 24 h (ng/mL)

{"Compound": "COc1cc(Cc2cnc(N)nc2N)cc(OC)c1OC [TMP, trimethoprim]", "Readout value": 0}

---

assay: Comparison of bioavailability of Compound A and Trimethoprim (TMP) administered by i/v injection, cats; format: in vivo; conditions: female, cat, serum, intravenous, 2 mg/kg, cat 2; 5 hours post inj.; i/v injection at 2 mg/kg; read-out: Serum conc. of TMP

{"Smiles code": "COc1cc(Cc2cnc(N)nc2N)cc(OC)c1OC", "concentration at 5 h, ng/mL": 0}

---

experiment: Comparison of bioavailability of Compound A and Trimethoprim (TMP) administered by i/v injection, dogs; type: in vivo; details: male, beagle, serum, intravenous; dog M; 0 hours post inj.; i/v injection at 2 mg/kg; read-out: Serum conc. of TMP
Value kind: concentration at 0 h (ng/mL)

{"Compound": "COc1cc(Cc2cnc(N)nc2N)cc(OC)c1OC [TMP, trimethoprim]", "Readout value": 0}

---

assay: Comparison of bioavailability of Compound A and Trimethoprim (TMP) administered by i/v injection, dogs; assay type: in vivo; conditions: female, beagle, serum, intravenous; dog F; 48 hours post inj.; i/v injection at 2 mg/kg; read-out: Serum conc. of TMP

{"Compound": "COc1cc(Cc2cnc(N)nc2N)cc(OC)c1OC [TMP, trimethoprim]", "Unit string": "ng/mL", "concentration at 48 h": 0}

---

Assay: Comparison of bioavailability of Compound A and Trimethoprim (TMP) administered by i/v injection, cats
Format: in vivo
Conditions: female, cat, serum, intravenous, 2 mg/kg, cat 3; 1 hours post inj.; i/v injection at 2 mg/kg; read-out: Serum conc. of Compound A
Procedure: Two young adult female cats, bodyweight around 3 kg, were given i/v injections at 2 mg/kg of TMP or Compound A, using 3 mg/base ml aqueous solutions.
Value kind: concentration at 1 h (ng/mL)

{"Compound": "Cc1cc(Cc2cnc(N)nc2N)c2cccnc2c1N(C)C [Compound A]", "Value kind": "concentration at 1 h", "Readout value": 320}

---

assay: Comparison of bioavailability of Compound A and Trimethoprim (TMP) administered by i/v injection, dogs; format: in vivo; conditions: male, beagle, serum, intravenous; dog M; 7 hours post inj.; i/v injection at 2 mg/kg; read-out: Serum conc. of Compound A

{"Smiles code": "Cc1cc(Cc2cnc(N)nc2N)c2cccnc2c1N(C)C", "concentration at 7 h, ng/mL": 250}

---

experiment: Comparison of bioavailability of Compound A and Trimethoprim (TMP) administered by i/v injection, dogs; format: in vivo; details: male, beagle, serum, intravenous; dog M; 7 hours post inj.; i/v injection at 2 mg/kg; read-out: Serum conc. of TMP
Value kind: concentration at 7 h

{"Smiles code": "COc1cc(Cc2cnc(N)nc2N)cc(OC)c1OC", "Readout value": "260 ng/mL"}

---

assay: Comparison of bioavailability of Compound A and Trimethoprim (TMP) administered by i/v injection, dogs; format: in vivo; details: female, beagle, serum, intravenous; dog F; 7 hours post inj.; i/v injection at 2 mg/kg; read-out: Serum conc. of Compound A
Value kind: concentration at 7 h (ng/mL)

{"Smiles code": "Cc1cc(Cc2cnc(N)nc2N)c2cccnc2c1N(C)C", "Unit string": "ng/mL", "Readout value": 290}

---

assay: Comparison of bioavailability of Compound A and Trimethoprim (TMP) administered by i/v injection, dogs; type: in vivo; conditions: female, beagle, serum, intravenous; dog F; 0 hours post inj.; i/v injection at 2 mg/kg; read-out: Serum conc. of TMP
Value kind: concentration at 0 h (ng/mL)

{"Smiles code": "COc1cc(Cc2cnc(N)nc2N)cc(OC)c1OC", "Value kind": "concentration at 0 h", "Unit string": "ng/mL", "Readout value": 0}

---

test: Comparison of bioavailability of Compound A and Trimethoprim (TMP) administered by i/v injection, dogs; assay type: in vivo; conditions: male, beagle, serum, intravenous; dog M; 48 hours post inj.; i/v injection at 2 mg/kg; read-out: Serum conc. of TMP

{"Molecule": "COc1cc(Cc2cnc(N)nc2N)cc(OC)c1OC [TMP, trimethoprim]", "concentration at 48 h": "0 ng/mL"}

---

assay: Comparison of bioavailability of Compound A and Trimethoprim (TMP) administered by i/v injection, dogs; assay type: in vivo; settings: female, beagle, serum, intravenous; dog F; 3 hours post inj.; i/v injection at 2 mg/kg; read-out: Serum conc. of TMP

{"Smiles code": "COc1cc(Cc2cnc(N)nc2N)cc(OC)c1OC", "concentration at 3 h, ng/mL": 740}

---

Assay: Comparison of bioavailability of Compound A and Trimethoprim (TMP) administered by i/v injection, dogs
Format: in vivo
Settings: male, beagle, serum, intravenous; dog M; 24 hours post inj.; i/v injection at 2 mg/kg; read-out: Serum conc. of Compound A
Description: One male beagle dog, 13.5 kg and one female beagle, 11.1kg, both aged about 18 months, received i/v injections (cephalic vein) of the test compounds at 2mg base/kg, using 15mg base /ml aqueous solutions.

{"Smiles code": "Cc1cc(Cc2cnc(N)nc2N)c2cccnc2c1N(C)C", "Unit string": "µg/mL", "concentration at 24 h": 0.11}

---

experiment: Comparison of bioavailability of Compound A and Trimethoprim (TMP) administered by i/v injection, cats; assay type: in vivo; conditions: female, cat, serum, intravenous, 2 mg/kg, cat 4; 3 hours post inj.; i/v injection at 2 mg/kg; read-out: Serum conc. of Compound A

{"Compound": "Cc1cc(Cc2cnc(N)nc2N)c2cccnc2c1N(C)C [Compound A]", "concentration at 3 h [ng/mL]": 140}

---

assay: Comparison of bioavailability of Compound A and Trimethoprim (TMP) administered by i/v injection, dogs; format: in vivo; conditions: female, beagle, serum, intravenous; dog F; 0 hours post inj.; i/v injection at 2 mg/kg; read-out: Serum conc. of Compound A
Value kind: concentration at 0 h (ng/mL)

{"Smiles code": "Cc1cc(Cc2cnc(N)nc2N)c2cccnc2c1N(C)C", "Unit string": "ng/mL", "Readout value": 0}

---

assay: Comparison of bioavailability of Compound A and Trimethoprim (TMP) administered by i/v injection, cats; type: in vivo; conditions: female, cat, serum, intravenous, 2 mg/kg, cat 1; 1 hours post inj.; i/v injection at 2 mg/kg; read-out: Serum conc. of TMP
Value kind: concentration at 1 h

{"Smiles code": "COc1cc(Cc2cnc(N)nc2N)cc(OC)c1OC", "Readout value": "460 ng/mL"}
